assayed.target: human PTH1 receptor (Homo sapiens, UniProt Q03431)
Sequence (Q03431 27-593): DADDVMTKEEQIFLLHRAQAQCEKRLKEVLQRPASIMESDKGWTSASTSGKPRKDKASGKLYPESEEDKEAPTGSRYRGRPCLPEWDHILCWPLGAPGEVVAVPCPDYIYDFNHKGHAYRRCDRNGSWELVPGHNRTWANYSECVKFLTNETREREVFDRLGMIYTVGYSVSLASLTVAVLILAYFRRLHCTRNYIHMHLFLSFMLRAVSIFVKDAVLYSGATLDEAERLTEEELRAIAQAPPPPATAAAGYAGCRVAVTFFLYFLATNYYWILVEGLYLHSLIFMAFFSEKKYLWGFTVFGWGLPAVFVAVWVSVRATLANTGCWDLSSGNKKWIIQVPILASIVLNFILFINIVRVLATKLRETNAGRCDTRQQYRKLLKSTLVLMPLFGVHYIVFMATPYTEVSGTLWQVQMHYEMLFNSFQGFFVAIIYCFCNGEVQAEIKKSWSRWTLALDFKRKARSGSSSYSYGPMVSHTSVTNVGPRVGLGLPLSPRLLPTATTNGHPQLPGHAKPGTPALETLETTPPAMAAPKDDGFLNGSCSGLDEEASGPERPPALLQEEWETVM
experimental.protocol: In vitro cAMP signal activity in HKRK-B7 cells (LLC-PK1 cells overexpressing the human PTH1 receptor)
Assay type: cell-based
experimental.context: 0.1 µM
endpoint: cAMP production activity (%)
Give the value, in units of %, as a plain number.

Q: Would you kindly share the measured cAMP production activity (%) for Cc1cc(N(C)C(N)=O)cc(C)c1CC[S@TB4](=O)(=O)N1CCC2(CC1)N=C(c1ccc([Si](C)(C)C)cc1)NC2=O [Compound 1139] ?
A: 86

Q: Now consider Cc1cc(N(C)C(N)=O)cc(C)c1CCS(=O)(=O)N1CCC2(CC1)N=C(c1cccc(C(F)(F)C(F)(F)C(F)(F)C(F)(F)F)c1)NC2=O [Compound 1341] .
A: 83

Q: Field entry: Cc1cc(S(=O)(=O)NCC(F)(F)C(F)(F)C(F)(F)F)ccc1CCS(=O)(=O)N1CCC2(CC1)N=C(c1cccc(C(F)(F)F)c1)NC2=O [Compound 667]
A: 40

Q: One more compound: Cc1cc(N(C)C(N)=O)cc(C)c1CCS(=O)(=O)N1CCC2(CC1)N=C(C1CCC([Si](C)(C)C)CC1)NC2=O (stereo not shown) [Compound 1137]
A: 82

Q: Try the compound Cc1cc(N(C)C(N)=O)cc(C)c1/C=C/[S@TB3](=O)(=O)N1CCC2(CC1)N=C(c1cccc(C(F)(F)C(F)(F)C(F)(F)C(F)(F)F)c1)NC2=O [Compound 1112]
A: 76

Q: Do the same for Cc1cc(C(=O)N(C)C)ccc1CCS(=O)(=O)N1CCC2(CC1)N=C(Nc1ccc(C(F)(F)F)cc1)NC2=O [Compound 1396] please
A: 133

Q: What would you report for Cc1cc2ccc1CCS(=O)(=O)N1CCC3(CC1)N=C(NC3=O)c1cc(cc(C(F)(F)F)c1)OCC(F)(F)C(F)(F)C(F)(F)COCCN(C)C2=O [Compound 1441] ?
A: 5.0
